Biological target: T1, ScTFIIS LW domain (residue 1–81) K66A (S. cerevisiae, UniProt P07273 1-81, K66A)
T1 sequence (looked up): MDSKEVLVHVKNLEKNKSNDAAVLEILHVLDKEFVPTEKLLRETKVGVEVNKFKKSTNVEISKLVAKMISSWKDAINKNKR
Experiment: ITC
parameter-measured: Kd (µM)
Value expressed in µM; do not type the unit.

Prompt: What value of Kd has been reported for the following binder? EEDAELDDLFGDDND (peptide, UniProt P38439 54-68, looked up) [ScLeo1 peptide (residue 54–68) containing the LFG motif]
Completion: 5.1
